Sourced from ChEMBL document CHEMBL1221252

- Organism: Sus scrofa
- EXPERIMENT_SUMMARY: Inhibition of pig gastric H(+)/K(+) ATPase at 4 uM
- Assay type: tissue-based
- PROTOCOL_CONDITIONS: Stomach
PARAMETER_MEASURED: inhibition (%)
Provide the reading as a plain figure in %.

Solved cases (2 shown):
structure=C=CCn1c(C)c(C)c2cc(C(N)=O)nc(OCc3ccc(F)cc3)c21 unit_tag=% assay_result=80.3
structure=Cc1[nH]c2c(OCc3ccc(F)cc3)nccc2c1C unit_tag=% assay_result=60.3

Looking up "Cc1c(C)n(Cc2ccccc2)c2c(OCc3ccc(F)cc3)nc(C(N)=O)cc12" , I found its inhibition recorded as 16.1

Looking up "C=CCn1c(C)c(C)c2cc(C(=O)NC)nc(OCc3ccc(F)cc3)c21" , I found its inhibition recorded as 78.4

Looking up "Cc1[nH]c2c(OCc3ccccc3F)nccc2c1C" , I found its inhibition recorded as 32.1

Looking up "Cc1[nH]c2c(OCc3ccccc3)nccc2c1C" , I found its inhibition recorded as 50.9

====

- EXPERIMENT_SUMMARY: Inhibition of pig gastric H(+)/K(+) ATPase
- Type: tissue-based, Sus scrofa, Stomach
pIC50: −log10 of the molar value.
Think of 7 as a floor: if pIC50 stands on it or above, it is 1.0; beneath it, 0.0.

Query string: Dear colleague, could you confirm whether "Cc1c(C)n(Cc2ccccc2)c2c(OCc3ccc(F)cc3)nc(C(=O)N3CCOCC3)cc12" has pIC50 at or above 7?
Result string: 1.0

Query string: Dear colleague, could you confirm whether "Cc1c(C)n(Cc2ccccc2)c2c(OCc3ccc(F)cc3)nc(C(=O)N(C)C)cc12" has pIC50 at or above 7?
Result string: 1.0

Query string: Dear colleague, could you confirm whether "Cc1c(C)n(Cc2ccccc2)c2c(OCc3ccc(F)cc3)nc(C(=O)NC3CC3)cc12" has pIC50 at or above 7?
Result string: 0.0

Query string: Dear colleague, could you confirm whether "C=CCn1c(C)c(C)c2cc(C(=O)Nc3ccncc3)nc(OCc3ccc(F)cc3)c21" has pIC50 at or above 7?
Result string: 0.0

Query string: Dear colleague, could you confirm whether "CCCn1c(C)c(C)c2ccnc(OCc3ccc(F)cc3)c21" has pIC50 at or above 7?
Result string: 0.0

Query string: Dear colleague, could you confirm whether "Cc1c(C)n(CC(C)C)c2c(OCc3ccc(Cl)cc3)nccc12" has pIC50 at or above 7?
Result string: 0.0

Query string: Dear colleague, could you confirm whether "Cc1c(C)n(CC2CC2)c2c(OCc3ccc(F)cc3)nccc12" has pIC50 at or above 7?
Result string: 0.0

Query string: Dear colleague, could you confirm whether "Cc1c(C)n(CC2OCCO2)c2c(OCc3ccc(F)cc3)nccc12" has pIC50 at or above 7?
Result string: 0.0

Query string: Dear colleague, could you confirm whether "Cc1c(C)n(CC(C)C)c2c(OCc3ccc(F)cc3)nccc12" has pIC50 at or above 7?
Result string: 0.0

Query string: Dear colleague, could you confirm whether "Cc1c(C)n(Cc2ccccc2)c2c(OCc3ccc(Cl)cc3)nccc12" has pIC50 at or above 7?
Result string: 0.0

Query string: Dear colleague, could you confirm whether "C=CCn1c(C)c(C)c2cc(C(=O)NC3CC3)nc(OCc3ccc(F)cc3)c21" has pIC50 at or above 7?
Result string: 0.0
